# Threshold of tumor cell numbers for HPV-16 detection annotations
- System: HPV-16
- assay-procedure: qPCR sensitivity against HPV-HNSCC tumor samples diluted among 10 ng normal human DNA
- conditions: Sample # 6
measured-endpoint: Threshold of tumor cell numbers for HPV-16 detection (tumor cells)

INSERT INTO assay_data (molecule, u, measured_value) VALUES
  ('HR E5L2-4: primer/probe set for junction between E5 and L2, SEQ ID NO: 55-57 (same as SEQ ID NO: 4-6) (nucleic acid, chemistry not given here) DNA 1: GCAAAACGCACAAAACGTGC DNA 2: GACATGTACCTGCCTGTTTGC DNA 3: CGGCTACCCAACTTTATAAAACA', 'tumor cells', 30.0),
  ('E6: previously designed (historical) HPV-16 E6 primers and Taqman probe, SEQ ID NO: 7-9, positive control (nucleic acid, Taqman probe, labels not given here) DNA 1: TCAGGACCCACAGGAGCG DNA 2: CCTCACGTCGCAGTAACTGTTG DNA 3: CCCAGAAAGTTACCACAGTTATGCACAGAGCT', 'tumor cells', 150.0),
  ('BR E1-5: HPV-16 E1 region primer/probe set, SEQ ID NO: 40-42 (same as SEQ ID NO: 1-3) (nucleic acid, chemistry not given here) DNA 1: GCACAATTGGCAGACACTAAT DNA 2: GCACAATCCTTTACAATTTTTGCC DNA 3: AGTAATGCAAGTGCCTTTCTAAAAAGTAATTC', 'tumor cells', 15.0);
